Listing of recorded DC50 by entry.
molecular target: HiBiT-tagged MDM2 (Homo sapiens); construct: expressed in transfected cells; experiment: MDM2 HiBit HEK293T degradation; assay type: cell-based; details: HEK293T cells stably expressing C-terminally HiBiT-tagged MDM2; 4 h; read-out: MDM2 HiBit HEK293T degradation 4 h: Average external-Abs DC50

MOLECULE: Cn1c(=O)n(C2CCC(=O)NC2=O)c2ccc(CN3CCN(CCCN4CCC(NC(=O)[C@@H]5NC6(CCCCC6)[C@@]6(C(=O)Nc7cc(Cl)ccc76)[C@H]5c5cccc(Cl)c5F)CC4)CC3)cc21 (some centres unmarked)
RESULT: 10 to 100 nM

MOLECULE: CC1(C)CCC2(CC1)NC(C(=O)N[C@H]1CC[C@H](CN3CCN(CCC#Cc4ccn5c(N6CCC(=O)NC6=O)cnc5c4)CC3)CC1)[C@H](c1ccnc(Cl)c1F)[C@]21C(=O)Nc2cc(Cl)ccc21 (some centres unmarked)
RESULT: < 10 nM

MOLECULE: O=C(O)Cn1c(=O)n(C2CCC(=O)NC2=O)c2ccc(C3CCN(C[C@H]4CC[C@H](NC(=O)[C@@H]5NC6(CCCCC6)[C@@]6(C(=O)Nc7cc(Cl)ccc76)[C@H]5c5cccc(Cl)c5F)CC4)CC3)cc21 (some centres unmarked)
RESULT: 10 to 100 nM

MOLECULE: O=C1CCN(c2cnc3cc(C4CCN(C(=O)CN5CCC(NC(=O)[C@@H]6NC7(CCCCC7)[C@@]7(C(=O)Nc8cc(Cl)ccc87)[C@H]6c6cccc(Cl)c6F)CC5)CC4)ccn23)C(=O)N1
RESULT: 100 to 1000 nM

Now look at this one.
### Prompt May I ask what DC50 has been recorded for O=C1CCC(n2c(=O)n(CCP(=O)(O)O)c3cc(C4CCN(C(=O)[C@H]5CC[C@H](NC(=O)[C@@H]6NC7(CCCCC7)[C@@]7(C(=O)Nc8cc(Cl)ccc87)[C@H]6c6cccc(Cl)c6F)CC5)CC4)ccc32)C(=O)N1 (some centres unmarked) ?
### Response 10 to 100 nM

----------
biological target: HiBiT-tagged MDM2 (Homo sapiens); construct: expressed in transfected cells; assay: MDM2 HiBit HEK293T degradation; type: cell-based; settings: HEK293T cells stably expressing C-terminally HiBiT-tagged MDM2; 4 h; read-out: MDM2 HiBit HEK293T degradation 4 h: Average external-Abs DC50
Listing of recorded DC50 by entry.

Worked examples, 2 compounds total:
COMPOUND: Cn1c(=O)n(C2CCC(=O)NC2=O)c2ccc(C3CCN(C[C@H]4CC[C@H](NC(=O)[C@@H]5NC6(CCCCC6)[C@@]6(C(=O)Nc7cc(Cl)ccc76)[C@H]5c5cccc(Cl)c5F)CC4)C(C(=O)O)C3)cc21 (stereo partly drawn) [I-168]
DC50: 10 to 100 nM
//
COMPOUND: Cn1c(=O)n(C2CCC(=O)NC2=O)c2ccc(CC[C@@H]3CN(C[C@H]4CC[C@H](NC(=O)[C@@H]5NC6(CCCCC6)[C@@]6(C(=O)Nc7cc(Cl)ccc76)[C@H]5c5cccc(Cl)c5F)CC4)CCO3)cc21 (stereo partly drawn) [I-21]
DC50: < 10 nM

### Prompt May I ask what DC50 has been recorded for Cn1c(=O)n(C2CCC(=O)NC2=O)c2ccc(CN3CCC(NC(=O)[C@@H]4NC5(CCCCC5)[C@@]5(C(=O)Nc6cc(Cl)ccc65)[C@H]4c4cccc(Cl)c4F)CC3)cc21 (stereo partly drawn) [I-98] ?
### Response 100 to 1000 nM

----------
Listing of recorded DC50 by entry.
target: HiBiT-tagged MDM2 (Homo sapiens); construct: expressed in transfected cells; experiment: MDM2 HiBit HEK293T degradation; type: cell-based; settings: HEK293T cells stably expressing C-terminally HiBiT-tagged MDM2; 4 h; read-out: MDM2 HiBit HEK293T degradation 4 h: Average external-Abs DC50

Worked examples, 3 molecules total:
MOLECULE: Cn1c(=O)n(C2CCC(=O)NC2=O)c2ccc(C3CCN(S(=O)(=O)NC(=O)[C@H]4CC[C@H](NC(=O)[C@@H]5NC6(CCCCC6)[C@@]6(C(=O)Nc7cc(Cl)ccc76)[C@H]5c5cccc(Cl)c5F)CC4)CC3)cc21 (stereo partly shown)
TARGET DESC: HiBiT-tagged MDM2 (Homo sapiens)
DC50: < 10 nM
--
MOLECULE: Cc1ccc2c(c1)NC(=O)[C@]21[C@@H](c2cccc(Cl)c2F)[C@H](C(=O)N[C@H]2CC[C@H](C(=O)N3CCN(CCCc4ccc5c(c4)n(C)c(=O)n5C4CCC(=O)NC4=O)CC3)CC2)NC12CCCCC2 (stereo partly shown)
TARGET DESC: HiBiT-tagged MDM2 (Homo sapiens)
DC50: < 10 nM
--
MOLECULE: CN1[C@@H](C(=O)N[C@H]2CC[C@H](CN3CC4(CCN(CCc5ccc6c(c5)n(C)c(=O)n6C5CCC(=O)NC5=O)CC4)C3)CC2)[C@H](c2cccc(Cl)c2F)[C@]2(C(=O)Nc3cc(Cl)ccc32)C12CCCCC2 (stereo partly shown)
TARGET DESC: HiBiT-tagged MDM2 (Homo sapiens)
DC50: < 10 nM

### Prompt May I ask what DC50 has been recorded for Cn1c(=O)n(C2CCC(=O)NC2=O)c2ccc(C3CCN(C[C@H]4CC[C@H](NC(=O)[C@@H]5NC6(CCCCC6)[C@@]6(C(=O)Nc7cc(CC8CC8)ccc76)[C@H]5c5cccc(Cl)c5F)CC4)CC3)cc21 (stereo partly shown) ?
### Response > 1000 nM

----------
molecular target: HiBiT-tagged MDM2 (Homo sapiens, UniProt Q00987); construct: expressed in transfected cells; assay: MDM2 HiBit HEK293T degradation; type: cell-based; details: HEK293T cells stably expressing C-terminally HiBiT-tagged MDM2; 4 h; read-out: MDM2 HiBit HEK293T degradation 4 h: Average external-Abs DC50
Sequence (Q00987 whole entry): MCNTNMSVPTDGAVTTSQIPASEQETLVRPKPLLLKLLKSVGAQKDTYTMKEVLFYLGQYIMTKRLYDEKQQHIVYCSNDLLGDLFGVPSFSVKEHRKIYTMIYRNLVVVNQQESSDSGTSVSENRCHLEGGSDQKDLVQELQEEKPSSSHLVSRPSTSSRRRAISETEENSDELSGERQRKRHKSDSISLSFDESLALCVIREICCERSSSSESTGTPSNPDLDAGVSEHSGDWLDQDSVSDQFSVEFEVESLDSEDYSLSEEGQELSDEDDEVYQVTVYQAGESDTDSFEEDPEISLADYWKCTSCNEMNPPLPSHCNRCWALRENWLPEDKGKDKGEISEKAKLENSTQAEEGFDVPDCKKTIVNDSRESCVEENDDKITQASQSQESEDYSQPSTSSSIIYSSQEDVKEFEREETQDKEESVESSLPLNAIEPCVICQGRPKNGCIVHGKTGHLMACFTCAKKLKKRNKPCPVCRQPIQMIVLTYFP
PROPERTY MEASURED: DC50

Worked examples, 2 molecules total:
MOLECULE: COc1cc2c(cc1OC(C)C)[C@H](c1ccc(Cl)cc1)N(c1ccc(N(C)C[C@H]3CC[C@H](c4ccc5c(c4)n(C)c(=O)n5C4CCC(=O)NC4=O)CC3)cc1)C(=O)C2 (stereo partly drawn)
RESULT: < 0.01 µM

MOLECULE: Cn1c(=O)n(C2CCC(=O)NC2=O)c2ccc(CN3CCN(C(=O)[C@H]4CC[C@H](NC(=O)[C@@H]5NC6(CCCCC6)[C@@]6(C(=O)Nc7cc(Cl)ccc76)[C@H]5c5cccc(Cl)c5F)CC4)C(C(=O)O)C3)cc21 (stereo partly drawn)
RESULT: 0.1 to 1 µM

### Prompt May I ask what DC50 has been recorded for O=C1CCC(n2c(=O)n(CP(=O)(O)O)c3cc(C4CCN(C(=O)[C@H]5CC[C@H](NC(=O)[C@@H]6NC7(CCCCC7)[C@@]7(C(=O)Nc8cc(Cl)ccc87)[C@H]6c6cccc(Cl)c6F)CC5)CC4)ccc32)C(=O)N1 (stereo partly drawn) ?
### Response 0.1 to 1 µM

----------
Listing of recorded DC50 by entry.
target: HiBiT-tagged MDM2 (Homo sapiens, UniProt Q00987); construct: expressed in transfected cells; assay: MDM2 HiBit HEK293T degradation; format: cell-based; details: HEK293T cells stably expressing C-terminally HiBiT-tagged MDM2; 4 h; read-out: MDM2 HiBit HEK293T degradation 4 h: Average external-Abs DC50

Worked examples, 3 compounds total:
COMPOUND: Cn1c(=O)n(C2CCC(=O)NC2=O)c2ccc(CCCC3(C(=O)O)CCN(C[C@H]4CC[C@H](NC(=O)[C@@H]5NC6(CCCCC6)[C@@]6(C(=O)Nc7cc(Cl)ccc76)[C@H]5c5cccc(Cl)c5F)CC4)CC3)cc21 (stereo partly shown)
RESULT: < 10 nM

COMPOUND: Cn1c(=O)n(C2CCC(=O)NC2=O)c2ccc(CN3CCC(OC4CN(C[C@H]5CC[C@H](NC(=O)[C@@H]6NC7(CCCCC7)[C@@]7(C(=O)Nc8cc(Cl)ccc87)[C@H]6c6cccc(Cl)c6F)CC5)C4)CC3)cc21 (stereo partly shown)
RESULT: < 10 nM

COMPOUND: Cn1c(=O)n(C2CCC(=O)NC2=O)c2ccc(C(=O)N3CC(OC4CN(C[C@H]5CC[C@H](NC(=O)[C@@H]6NC7(CCCCC7)[C@@]7(C(=O)Nc8cc(Cl)ccc87)[C@H]6c6cccc(Cl)c6F)CC5)C4)C3)cc21 (stereo partly shown)
RESULT: < 10 nM

### Prompt May I ask what DC50 has been recorded for Cn1c(=O)n(C2CCC(=O)NC2=O)c2ccc(CCC(=O)N3CCN(C[C@H]4CC[C@H](NC(=O)[C@@H]5NC6(CCCCC6)[C@@]6(C(=O)Nc7cc(Cl)ccc76)[C@H]5c5cccc(Cl)c5F)CC4)CC3)cc21 (stereo partly shown) ?
### Response < 10 nM
